test system: Fer (mouse); assay: phosphorylation enrichment, bacterial display (enrichment ratio); higher = better substrate or ligand; peptides without Tyr show the background;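 also: 11-residue human phosphosite peptides and single-mutation variants displayed on the E. coli surface, counted by deep sequencing, each peptide's frequency after selection divided by its frequency in the unselected input library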;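 also: frequency after pTyr selection over input frequency; kinase dosed for 20-30% of maximal phosphorylation in three min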

Sequence text	Experimental target	phosphorylation enrichment
HNLDFYKETTN [FGFR3_Y648_K650E_YF]	Fer (mouse)	0.656
GTHCHYKAPTV [FZD9_Y569]	Fer (mouse)	0.505
GSPAPYRRRKR [MBD1_Y403_P401A]	Fer (mouse)	0.505
QRKPSYNQLPS [BRCA2_Y71_A75P]	Fer (mouse)	0.536
EKKQTYGSCRK [LACTB_Y473_R469K]	Fer (mouse)	0.351
MGSFNYLGFAR [SPTLC2_Y178_YF]	Fer (mouse)	0.431
KGSEGYLAAIY [NF1_Y2503_T2507I]	Fer (mouse)	0.493
SHSMRYFSTAV [HLA-C_Y31_D33S]	Fer (mouse)	0.435
QQLDKYQELLD [LMNA_Y359_E358K]	Fer (mouse)	0.452
PEVRRYVLPLN [RPE65_Y368]	Fer (mouse)	0.893
CLLHCYFSQIR [MCM3AP_Y873]	Fer (mouse)	0.391
DVVKDCAFVHM [RBM14_Y114_Y114C]	Fer (mouse)	0.498
QDEPTYARSSK [PEAK1_Y616_H611Q]	Fer (mouse)	0.466
QGLRLYRTHLA [BTK_Y617_P619T]	Fer (mouse)	0.42
